- test details: GFP drop in mixed WT/humanized-ribosome E. coli culture – GFP/RFP fluorescence, OD600, single point, bacterial rRNA inhibitor project, primary screen (AID 720706)
- experimental conditions: E. coli WT GFP vs humanized-ribosome RFP mutants, 24 h; measured here: RFP humanized mutant strains, DMSO median 0, no signal -100, concentration not given here
Among all 350,000 compounds or so, about 5,500 (1.6%) were called active. Many of the other results were omitted from the sample, so actives are more common in it than they were.
measured endpoint: RFP signal change (%)
Quick note: give the figure in %, leave out the unit.

Below, each entry is followed by its recorded RFP signal change result.
Task item: Bench note: what RFP signal change did COc1cccc(NS(=O)(=O)c2ccc(-c3coc(C)n3)cc2)c1 show?
Reply: 9.54

Task item: Bench note: what RFP signal change did O=C(C[C@H]1CC[C@@H]2[C@H](COC[C@H](O)CN2Cc2ccc(Oc3ccccc3)cc2)O1)N1CCN(c2ccccc2)CC1 show?
Reply: 19.9

Task item: Bench note: what RFP signal change did CCOC(=O)C1C(=O)NCC1c1ccccc1 (centres undefined) show?
Reply: 1

***
Task item: Bench note: what RFP signal change did COc1ccc(NC(=O)CN(Cc2ccccc2)S(C)(=O)=O)cc1OC show?
Reply: 2.82

---

- test details: GFP drop in mixed WT/humanized-ribosome E. coli culture – GFP/RFP fluorescence, OD600, single point, bacterial rRNA inhibitor project, primary screen (AID 720706)
- experimental conditions: E. coli WT GFP vs humanized-ribosome RFP mutants, 24 h; measured here: OD600 growth, DMSO median 0, no signal -100
About 5,500 (1.6%) of roughly 350,000 compounds were called active. Only a selection was taken, and actives are over-represented in it overall.
measured endpoint: OD600 change (%)
Quick note: give the figure in %, leave out the unit.

Task item: Bench note: what OD600 change did C[C@@H]1CCCCO[C@H](CN(C)C(=O)CCCN(C)C)[C@@H](C)CN([C@@H](C)CO)C(=O)c2cc(NC(=O)c3ccncc3)ccc2O1 show?
Reply: 12.1

Task item: Bench note: what OD600 change did C[C@H](CO)N1C[C@H](C)[C@H](CN(C)C(=O)C2CC2)Oc2ncc(C#Cc3ccccc3)cc2C1=O show?
Reply: 2.9

Task item: Bench note: what OD600 change did C[C@@H]1CN([C@H](C)CO)S(=O)(=O)c2ccc(C#CC3CC3)cc2O[C@H]1CN(C)C(=O)C1CCCCC1 show?
Reply: -48

Task item: Bench note: what OD600 change did Cc1ccc(S(=O)(=O)Nc2ccc3c(c2)C(=O)N([C@@H](C)CO)C[C@H](C)[C@@H](CN(C)S(=O)(=O)c2ccc(C)cc2)O3)cc1 show?
Reply: 0.52

Task item: Bench note: what OD600 change did O=C(C[C@H]1C[C@H]2c3cc(NC(=O)C4CCOCC4)ccc3O[C@H]2[C@@H](CO)O1)NCC1CC1 show?
Reply: 8.38

Turning to the following compound.
Task item: Bench note: what OD600 change did Nc1nonc1-n1nnc(C(=O)N/N=C/c2ccc(Cl)cc2)c1-c1ccc2c(c1)OCO2 show?
Reply: 0.681

---

- test details: GFP drop in mixed WT/humanized-ribosome E. coli culture – GFP/RFP fluorescence, OD600, single point, bacterial rRNA inhibitor project, primary screen (AID 720706)
- experimental conditions: E. coli WT GFP vs humanized-ribosome RFP mutants, 24 h; stronger effect = lower value, DMSO median 0, no signal -100
Screen size: about 350,000 compounds; about 5,500 (1.6%) were called active. Many of the other results were omitted from the sample, so actives are more common in it than they were.
measured endpoint: GFP signal change (wild-type ribosome) (%)
Quick note: give the figure in %, leave out the unit.

Below, each entry is followed by its recorded GFP signal change (wild-type ribosome) result.
Task item: Bench note: what GFP signal change (wild-type ribosome) did O=[N+]([O-])c1cc(C(F)(F)F)ccc1NCCc1ccncc1 show?
Reply: 1.68

Task item: Bench note: what GFP signal change (wild-type ribosome) did CCNc1ccc(C(=O)OCC(=O)N2c3ccccc3NC(=O)C2(C)C)cc1[N+](=O)[O-] show?
Reply: -25.9

***
Task item: Bench note: what GFP signal change (wild-type ribosome) did O=C(C[C@@H]1CC[C@@H](NC(=O)Nc2ccc(F)cc2)[C@H](CO)O1)NCCN1CCCC1 show?
Reply: 0.52

Task item: Bench note: what GFP signal change (wild-type ribosome) did O=C(c1cccs1)N1CCC(c2nc3ccccc3s2)CC1 show?
Reply: -27.6

Task item: Bench note: what GFP signal change (wild-type ribosome) did O=C(Nc1ccccc1)N1CCCCN2[C@H](CO)[C@@H](c3ccc(-c4ccccc4F)cc3)[C@H]2C1 show?
Reply: -59.5

Task item: Bench note: what GFP signal change (wild-type ribosome) did CNS(=O)(=O)c1cccc(C(=O)OCC(=O)N2c3ccccc3NC(=O)C2(C)C)c1 show?
Reply: -0.594

---

- test details: GFP drop in mixed WT/humanized-ribosome E. coli culture – GFP/RFP fluorescence, OD600, single point, bacterial rRNA inhibitor project, primary screen (AID 720706)
- experimental conditions: E. coli WT GFP vs humanized-ribosome RFP mutants, 24 h; measured here: OD600 growth, DMSO median 0, no signal -100
About 5,500 (1.6%) of roughly 350,000 compounds were called active. The list comes from a sample in which actives are over-represented; it also holds close analogues and randomly drawn compounds.
Below, each of the compounds is paired with its reported OD600 change value.
Answer format: value, then unit.

Below, each entry is followed by its recorded OD600 change result.
Task item: Bench note: what OD600 change did O=C(Cc1ccccc1)N1N=C(c2ccncc2)CC1(O)C(F)(F)F (stereo not drawn) show?
Reply: -1.11%

Task item: Bench note: what OD600 change did Cc1ccc(C(=O)N2CCCc3ccccc32)c(Cl)c1 show?
Reply: -35.7%

Task item: Bench note: what OD600 change did CC1CN(c2nc(Nc3ccccc3)nc(N)c2[N+](=O)[O-])CC(C)O1 (stereo not drawn) show?
Reply: -33.8%

Task item: Bench note: what OD600 change did Cc1noc(C)c1NC(=O)Nc1ccc2c(c1)C(=O)N([C@@H](C)CO)C[C@H](C)[C@@H](CN(C)C(=O)C1CCCCC1)OCCCC[C@@H](C)O2 show?
Reply: 8.89%

Task item: Bench note: what OD600 change did Cc1cc(C)cc(OCC(=O)Nc2ccc(N3CCOCC3)cc2N2CCOCC2)c1 show?
Reply: 6.13%

Task item: Bench note: what OD600 change did CC(C)c1ccc(NC(=S)NC2CC3C=CC2C3)cc1 (stereo not drawn) show?
Reply: -66.8%

Task item: Bench note: what OD600 change did Cc1cccc(NC(=O)Nc2ccc3c(c2)OCO3)n1 show?
Reply: 7.09%

Turning to the following compound.
Task item: Bench note: what OD600 change did CC(NC(=O)Nc1cccc([N+](=O)[O-])c1)c1ccc2c(c1)OCO2 (stereo not drawn) show?
Reply: -26.4%

---

- test details: GFP drop in mixed WT/humanized-ribosome E. coli culture – GFP/RFP fluorescence, OD600, single point, bacterial rRNA inhibitor project, primary screen (AID 720706)
- experimental conditions: E. coli WT GFP vs humanized-ribosome RFP mutants, 24 h; stronger effect = lower value, DMSO median 0, no signal -100
The campaign covered roughly 350,000 compounds. About 5,500 (1.6%) were called active. The list comes from a sample in which actives are over-represented; it also holds close analogues and randomly drawn compounds.
measured endpoint: GFP signal change (wild-type ribosome) (%)
Quick note: give the figure in %, leave out the unit.

Below, each entry is followed by its recorded GFP signal change (wild-type ribosome) result.
Task item: Bench note: what GFP signal change (wild-type ribosome) did COc1cccc(CN(C)C[C@H]2OCc3ccccc3-c3c(n(C)c4ccccc34)C(=O)N([C@@H](C)CO)C[C@@H]2C)c1 show?
Reply: -21.2

Task item: Bench note: what GFP signal change (wild-type ribosome) did CCCN1[C@H](C(=O)N[C@H](C)c2ccccc2)[C@@H](CO)[C@@H]2Cn3c(ccc(-c4ccccc4)c3=O)[C@@H]21 show?
Reply: -1.92

Task item: Bench note: what GFP signal change (wild-type ribosome) did CS(=O)(=O)Nc1ccc2c(c1)[C@@H]1C[C@H](CC(=O)NCc3ccccn3)O[C@@H](CO)[C@@H]1O2 show?
Reply: 2.36

***
Task item: Bench note: what GFP signal change (wild-type ribosome) did O=C(NC1CCC1)[C@@H]1[C@@H](CO)[C@@H]2Cn3c(ccc(/C=C/c4ccccc4)c3=O)[C@@H]2N1Cc1ccncc1 show?
Reply: -9.73

Task item: Bench note: what GFP signal change (wild-type ribosome) did COc1cccc(NC(=O)COc2cccnc2[N+](=O)[O-])c1 show?
Reply: 2.25

Task item: Bench note: what GFP signal change (wild-type ribosome) did COC(=O)c1ccc(CSc2nc3ccccc3c(=O)n2-c2cccc(OC)c2)o1 show?
Reply: 1.15

Task item: Bench note: what GFP signal change (wild-type ribosome) did O=C(NNC(=S)NC1CC2CCC1C2)c1ccc(Cl)cc1 (stereo not drawn) show?
Reply: -24.6

Task item: Bench note: what GFP signal change (wild-type ribosome) did Cc1cccc(NC(=O)c2nc(S(=O)(=O)Cc3ccccc3)ncc2Cl)c1 show?
Reply: -14.7

Task item: Bench note: what GFP signal change (wild-type ribosome) did O=C(c1ccc(F)cc1)N1CC(=O)N2[C@H](CO)[C@H](c3ccc(-c4ccccc4F)cc3)[C@@H]2C1 show?
Reply: 0.409

Task item: Bench note: what GFP signal change (wild-type ribosome) did O=C(C[C@@H]1CC[C@H]2[C@@H](COC[C@H](O)CN2C(=O)Nc2ccccc2)O1)NCCc1ccncc1 show?
Reply: 6.3

Task item: Bench note: what GFP signal change (wild-type ribosome) did Cc1nnc(SCC(=O)Nc2cccc(N)c2)n1-c1ccccc1 show?
Reply: 6.38

Task item: Bench note: what GFP signal change (wild-type ribosome) did O=C(NNC(=O)C1C2CCC(C2)C1C(=O)O)c1ccc(Cl)cc1 (stereo not drawn) show?
Reply: 1.61

Task item: Bench note: what GFP signal change (wild-type ribosome) did O=S(=O)(NC1CC2CCC1C2)c1ccc(Cl)cc1 (stereo not drawn) show?
Reply: 3.91

Numbers sourced from PubChem BioAssay AID720706.
